system: Bacillus subtilis DB104 (SP-AmyQ fusion secretion); test: AmyQ secretion efficiency, weighted average sort bin (1 = best secretion, 10 = worst) (bin number (weighted average, 1-10)); higher = lower secretion efficiency
Threshold rule: AmyQ secretion efficiency greater than or equal to 3 is yes; below that, no.

[
  {
    "seq": "MMIKQCVICLSLLVFGTTTAHAEET",
    "assignedCategory": "no"
  },
  {
    "seq": "MFNRLFRVCFLAALIMAFTLPNSVYDQKP",
    "assignedCategory": "yes"
  },
  {
    "seq": "MKKWLIIAVSLAIAIVLFMYTKGEAKVAGM",
    "assignedCategory": "yes"
  },
  {
    "seq": "MLKKKWMVGLLAGCLAAGGFSYNNFATEN",
    "assignedCategory": "yes"
  },
  {
    "seq": "MKRITIIITMFIAAAVISLTGTAEAAEK",
    "assignedCategory": "no"
  },
  {
    "seq": "MLCVMMLLFSAIALFLVASFPVSAQAKDQ",
    "assignedCategory": "yes"
  },
  {
    "seq": "MISKKLWISLLFALTLIFTMAFSNMSAQAAGK",
    "assignedCategory": "no"
  },
  {
    "seq": "MTKLKMLSMLTVMIASLFIFSSQALFVQY",
    "assignedCategory": "yes"
  },
  {
    "seq": "MKKTIMSFVAVAALSTTAFGAHASAAKR",
    "assignedCategory": "no"
  },
  {
    "seq": "MKKCRKSIKRFLVSLIIGTFVISVPFMANAQSD",
    "assignedCategory": "no"
  },
  {
    "seq": "MLKKVILAAFILVGSTLGEDSFSSDASAKHV",
    "assignedCategory": "yes"
  },
  {
    "seq": "MKKLILAFILSAAAAVGLFTFGGVQQASAKEL",
    "assignedCategory": "yes"
  },
  {
    "seq": "MKKLLAAGIIGLLTVSIASPSFTAEK",
    "assignedCategory": "yes"
  },
  {
    "seq": "MLKKIARRKCKKRVGSLLFFTAPASAHVS",
    "assignedCategory": "yes"
  },
  {
    "seq": "MKKWMITIAMLILAGIALFVFIDPLKSHKT",
    "assignedCategory": "yes"
  },
  {
    "seq": "MKRFSTAYLLLGILCSAAVFLIPQPGRALGAEV",
    "assignedCategory": "no"
  },
  {
    "seq": "MKKWMITIAMLILAGIALFVFISPPPFFTAVPSTVLKSHKT",
    "assignedCategory": "yes"
  },
  {
    "seq": "MNKKYFVLIVCIIFTSALFPTFSSVTLAQG",
    "assignedCategory": "no"
  },
  {
    "seq": "MKRTWNVCLIALLMVLLVAIFVTSPFHAEAKKP",
    "assignedCategory": "no"
  },
  {
    "seq": "MKKKQVMLALTAAAGLGLTALHSAPAFKAAPL",
    "assignedCategory": "yes"
  },
  {
    "seq": "MNFKKTVVSALSISALALRKRRKRASAHEI",
    "assignedCategory": "yes"
  },
  {
    "seq": "MRKLWISLLFALTLIFTMAFSNMSAQAAGK",
    "assignedCategory": "no"
  },
  {
    "seq": "MKKWMAGLFLAAAVLLCLMVPQQIQFASS",
    "assignedCategory": "yes"
  },
  {
    "seq": "MKLWMRKTLVVLFTIVTFGLVSPPAALMTDKP",
    "assignedCategory": "no"
  },
  {
    "seq": "MKRKLLSSLAISALSLGLLVSAPTAGFAAES",
    "assignedCategory": "yes"
  },
  {
    "seq": "MRSYIKVLTMCFLGLILFVPTFLADNS",
    "assignedCategory": "yes"
  },
  {
    "seq": "MFNRLFRVCFLAALIMAFTLPNSVYHQKP",
    "assignedCategory": "yes"
  },
  {
    "seq": "MKKWLIIAVSLAIAIVLFMYTKGEAKAAED",
    "assignedCategory": "no"
  }
]

Data origin: the supplement of paper PMC9942255
